- procedure_details: differential killing of epithelial or mesenchymal cells, primary screen, imaging, PC-3E GFP, TEM4-18 mCherry, co-culture (AID 1345086);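 further: normalised mesenchymal count divided by normalised epithelial count so high means epithelial killing; cells exposed to compound for 72 h before imaging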
- applied_conditions: imaging cell counts, at 1 µM, actives lie on both sides, counts scaled to control wells, 1 = unselective
quantity_kind: red/green cell ratio (normalised)
One number for each entry.

Record excerpt, results attached:
Clc1ccc(CO/N=C(\Cn2ccnc2)c2ccc(Cl)cc2Cl)c(Cl)c1 :: 1.02
CC(C)[C@@H]1CC[C@](O)(CCl)[C@@H]2C(=O)OCC(C(=O)O)=C[C@H]21 :: 0.96
COc1c2c(cc3c1OCO3)CC[N+](C)=C2 :: 1.03
O=c1ccc2cc(O[C@@H]3O[C@H](CO)[C@@H](O)[C@H](O)[C@H]3O)c(O)cc2o1 :: 0.97
O=C(O)COc1ccc(O)cc1 :: 1.05

Please state, for each entry, its recorded red/green cell ratio (normalised).
1. O=c1cccc2n1CC1CC2CN2CCCC[C@@H]12 (some centres not stated)
2. O=C1NCC[C@H]1O
3. O=C(O)CCC1NCC2CC1CN1CCCCC21 (configuration not stated)
4. CN[C@@H]1[C@@H](O)C(OC2[C@@H](N)C[C@@H](N)[C@H](O[C@H]3O[C@H](C(C)O)[C@@H](O)[C@H](O)[C@H]3N)[C@H]2O)OC[C@]1(C)O (some centres not stated)
5. CC(C)=CCC[C@H](C)[C@H]1CC[C@]2(C)C[C@H]3[C@@H](C(=O)C[C@@]3(C)O)/C(C=O)=C\C[C@@H]12

Given back:
1. 1.02
2. 0.95
3. 1.12
4. 1.08
5. 0.95

Please state, for each entry, its recorded red/green cell ratio (normalised).
1. COc1cccc(C=O)c1OC
2. CCC(C)[C@H]1O[C@]2(C=C[C@@H]1C)C[C@@H]1C[C@@H](C/C=C(\C)[C@@H](OC3C[C@H](OC)C(O[C@H]4C[C@H](OC)[C@@H](O)[C@H](C)O4)[C@H](C)O3)[C@@H](C)/C=C/C=C3\COC4[C@H](O)C(C)=C[C@@H](C(=O)O1)[C@]34O)O2 (some centres not stated)
3. COc1cc([C@@H]2c3cc4c(cc3[C@H](OC(C)=O)C3COC(=O)[C@@H]32)OCO4)cc(OC)c1OC (some centres not stated)
4. O=C(O)CCCOc1ccc(Cl)cc1Cl
5. CCC(C)C(=O)O[C@@H]1C[C@@]2(C)[C@H](c3ccoc3)OC(=O)CC23OC2(C)OC34[C@H](OC(=O)C(C)C)C3(O)[C@@H](OC(=O)C5(C)OC5C)[C@@]5(C)C[C@]3(O)[C@@](C)([C@H]5CC(=O)OC)C14O2 (some centres not stated)

Given back:
1. 1.04
2. 0.68
3. 0.81
4. 0.77
5. 1.06

Please state, for each entry, its recorded red/green cell ratio (normalised).
1. O=C1NCC[C@@H]1O
2. C[C@H]1CCCC(=O)CCC/C=C/c2cc(O)cc(O)c2C(=O)O1

Given back:
1: 0.9; 2: 1.02

Please state, for each entry, its recorded red/green cell ratio (normalised).
1. COc1cc2c(cc1OC)-c1c(oc3c4c(ccc3c1=O)OC(C(C)C)C4)CO2 (configuration not stated)
2. O=C1CC2OCC=C3CN4CC[C@]56c7ccccc7N1C5[C@H]2[C@@H]3CC46 (some centres not stated)
3. CN1C(=O)c2ccccc2NC(=O)[C@@H]1Cc1ccccc1

Given back:
[0.93, 1.12, 1.03]

From: PubChem BioAssay
